- Test system: S. aureus A798
- PROTOCOL: Bacterial growth minimal inhibitory concentration (microdilution, cation-adjusted Mueller-Hinton Broth)
- Format: cell-based, Staphylococcus aureus
- STATED_CONDITIONS: Staphylococcus aureus, A798; multiply-resistant strain (methicillin- and quinolone-resistant)
MIC under 0.5 µg/mL gets rule met, anything at or over 0.5 µg/mL gets rule not met.

Use the examples below as a reference point.
* NCCN(CCN)CCOc1cccc(-c2cccc(CNCC[C@H]3CN(c4ccc5c(n4)NC(=O)CO5)C(=O)O3)c2)c1 [Example $155] | rule not met
* CN1CC(Oc2cncc(-c3cncc(CNCC[C@H]4CN(c5ccc6c(n5)NC(=O)CO6)C(=O)O4)c3)n2)C1 [Example $190] | rule not met
* O=C1COc2ccc(N3C[C@H](CCNCc4cccc(-c5cccc(OC6CCCNC6)n5)c4)OC3=O)nc2N1.O=CO (mixture of isomers) [Example $111] | rule not met
* CNCCOc1cccc(-c2cccc(CNCC[C@H]3CN(c4ccc5c(n4)NC(=O)CO5)C(=O)O3)c2)c1 [Example 4] | rule not met
* O=C1COc2ccc(N3C[C@H](CCNCc4cccc(-c5cccc(OCCN6CCOCC6)n5)c4)OC3=O)nc2N1 [Example 23] | rule met
* NC1(COc2cccc(-c3cccc(CNCC[C@H]4CN(c5ccc6c(n5)NC(=O)CO6)C(=O)O4)c3)c2)CC1 [Example 14] | rule not met
* COc1cc(O[C@H]2CCN(C)C2)nc(-c2cccc(CNCC[C@H]3CN(c4ccc5c(n4)NC(=O)CO5)C(=O)O3)c2)c1 [Example $136] | rule met
* O=C1COc2ccc(N3C[C@H](CCNCc4cccc(-c5cccc(OCCN6CCCCC6)n5)c4)OC3=O)nc2N1 [Example 12] | rule met

// query For this molecule, is MIC lower than 0.5 µg/mL? C[C@H]1C[C@H](Oc2cccc(-c3cccc(CNCC[C@H]4CN(c5ccc6c(n5)NC(=O)CO6)C(=O)O4)c3)n2)CN1C [Example $175]
// result rule met

// query For this molecule, is MIC lower than 0.5 µg/mL? CN1CCC[C@@H]1COc1cccc(-c2cccc(CNCC[C@H]3CN(c4ccc5c(n4)NC(=O)CO5)C(=O)O3)c2)n1 [Example $171]
// result rule met
